Measured Inhibition by item
System: Plasmodium falciparum
assay-name: GSK_TCMDC: Inhibition of Plasmodium falciparum 3D7 in whole red blood cells, using parasite LDH activity as an index of growth. Test compounds present at 2uM
Format: functional
API: value field is a number in %; no unit string.

- compound: "O=C(Nc1ccc(Cn2ncc(N3CCCNCC3)c(Cl)c2=O)cc1)Nc1cc(C(F)(F)F)cc(C(F)(F)F)c1.O=C(O)C(F)(F)F"
  assay-target: "Plasmodium falciparum"
  units-text: "%"
  Inhibition: 100
- compound: "CN(C)CCCOc1cccc(CCNCc2cccc(Oc3ccc(Cl)cc3)c2)c1.O=C(O)C(F)(F)F"
  assay-target: "Plasmodium falciparum"
  units-text: "%"
  Inhibition: 93

Entry `O=C(Nc1cccc(-c2ccc(CN3CCNCC3)cc2)c1)c1cccc(Cl)c1.O=C(O)C(F)(F)F` , Inhibition reported as 92

Entry `Cc1cc(Cl)c(Cl)cc1NC(=O)Nc1cccc(C(F)(F)F)c1` , Inhibition reported as 93

---

Measured Inhibition by item
System: Plasmodium falciparum
assay-name: GSK_TCMDC: Inhibition of Plasmodium falciparum 3D7 in whole red blood cells, using parasite LDH activity as an index of growth. Test compounds present at 2uM
Assay type: functional
API: value field is a number in %; no unit string.

- molecule: "O=C1Nc2cccc3c2C1(CCCCN1CCC(c2c(-c4ccccc4)[nH]c4ccccc24)CC1)CCC3 (stereo not drawn)"
  Inhibition (%): 84
- molecule: "Cc1cc(CN2CC[C@H](NC(=O)c3ccc(Cl)c(Cl)c3)C2)ccc1OCCN1CCCC1.O=C(O)C(F)(F)F"
  Inhibition (%): 100
- molecule: "N#Cc1cc(C(=O)c2cc(Cl)ccc2O)cn(-c2cc(Cl)cc(Cl)c2)c1=O"
  Inhibition (%): 93

Entry `COc1ccc(C(=O)N2CCN(c3ccc([N+](=O)[O-])c(NC4CC4)c3)CC2)cc1Br` , Inhibition reported as 99

Entry CCn1c(-c2cc(C)on2)nc2cnc(Oc3ccc(C(=O)N4CC(=O)N(C)C4C(C)(C)C)cc3)cc21 (stereo not drawn) , Inhibition reported as 81

Entry `CS(=O)(=O)c1ccccc1CNC(=O)c1cccc(-c2ccc(-c3nc4cc(C(F)(F)F)ccc4[nH]3)cc2)c1` , Inhibition reported as 95

Entry `Br.CC(C)(C)c1ccc(OCCCON2C(=N)N=C(N)NC2(C)C)c(C(C)(C)C)c1` , Inhibition reported as 93

---

Tested on: HepG2
assay-name: GSK_TCMDC: Percent inhibition of human HepG2 cell line. Test compounds present at 10uM.
Assay type: functional
readout-kind: Inhibition (%)
API: value field is a number in %; no unit string.

Use the examples below as a reference point.
- compound: "CCOc1cc(C=Cc2nc(O)c3ccccc3n2)cc(Cl)c1O"
  Inhibition (%): 25
- compound: "Cl.O=c1cc(NCCCNC2CCOc3c(Cl)cc(Cl)cc32)[nH]c2ccccc12 (stereo not given)"
  Inhibition (%): 0
- compound: "CC(C)(C)C(C)(C)Cc1ccc(O)c(CN2CCN(c3ccccc3)CC2)c1"
  Inhibition (%): 6

Entry COc1cc(CNCCCNc2cc(=O)c3ccccc3[nH]2)c2c(c1)C(C)CN2C(=O)OC(C)(C)C (stereo not given) , Inhibition reported as 0

Entry `O=C(Nc1cccc(N2CCC(NCCCc3ccncc3)CC2)c1)c1cccc(C(F)(F)F)c1` , Inhibition reported as 11

---

Tested on: HepG2
assay-name: GSK_TCMDC: Percent inhibition of human HepG2 cell line. Test compounds present at 10uM.
Assay type: functional
Measured Inhibition by item
API: value field is a number in %; no unit string.

Use the examples below as a reference point.
- compound: "COc1ccc2oc(=O)c(C#N)c(O)c2c1"
  assay-target: "HepG2"
  Inhibition, %: 0
- compound: "CC(C)(C)N1CCC(N(Cc2ccc(-c3ccc(C(F)(F)F)cc3)cc2)C(=O)Cn2c(CCc3cccc(F)c3F)cc(=O)c3ccccc32)CC1.O=C(O)C(O)C(O)C(=O)O"
  assay-target: "HepG2"
  Inhibition, %: 100

Entry O=C(c1ccc(Cl)cc1)N1CCOC(CCN2CCC(c3ccccc3)CC2)(c2ccc(Cl)c(Cl)c2)C1 (stereo not given) , Inhibition reported as 19

Entry `O=C(NCCN1CCOCC1)c1ccc(O)c(-c2cccc(C(F)(F)F)c2)c1` , Inhibition reported as 0

Entry `CCN(CC1CCN(CC2(O)CCOCC2)CC1)c1cc(C)nc(Nc2ccc(Cl)cc2)n1` , Inhibition reported as 34

---

Measured Inhibition by item
System: Plasmodium falciparum
assay-name: GSK_TCMDC: Inhibition of Plasmodium falciparum 3D7 in whole red blood cells, using parasite LDH activity as an index of growth. Test compounds present at 2uM
Type: functional
API: value field is a number in %; no unit string.

Use the examples below as a reference point.
- compound: "COc1cc(-c2[nH]c(-c3ccc(OCCN(C)C)cc3)cc2-c2ccncc2)ccc1Cl.Cl"
  Inhibition [%]: 93
- compound: "COc1ccc(N2CCN(c3nc(Nc4ccc(NC(C)=O)cc4)nc(N4CCCC4)n3)CC2)cc1"
  Inhibition [%]: 91
- compound: "Cl.N=C(N)Nc1nccc(NCc2ccccc2)n1"
  Inhibition [%]: 88
- compound: "CCCCCN1CCN(Cc2cccc(NC(=O)c3ccc(Cl)c(Cl)c3)c2)CC1.O=C(O)C(F)(F)F"
  Inhibition [%]: 90
- compound: "Cn1cncc1C(=O)Nc1cccc(-c2ccc(-c3nc4cc(F)ccc4[nH]3)s2)c1"
  Inhibition [%]: 99

Entry `CN1CCN(CCCN(C(=O)Nc2cc(C(F)(F)F)cc(C(F)(F)F)c2)c2ccccc2Cc2ccccc2)CC1` , Inhibition reported as 89

Entry Cc1ccccc1C1CCN(C2CCC(NC(=O)/C=C/c3ccc(C(F)(F)F)cc3F)CC2)CC1 (centres undefined) , Inhibition reported as 99

Entry `O=[N+]([O-])c1ccc2c(c1)c1ccccc1n2Cc1ccccc1O` , Inhibition reported as 93

Entry `CCN(CCO)CCc1cccc(Nc2nccc(-c3c(-c4ccc(NC(=O)C(C)(C)C)cc4)nn4ccccc34)n2)c1.Cl` , Inhibition reported as 100

---

Test system: Plasmodium falciparum
assay-name: GSK_TCMDC: Inhibition of Plasmodium falciparum Dd2 in whole red blood cells, using parasite LDH activity as an index of growth. Test compounds present at 2uM
Assay type: functional
readout-kind: Inhibition

- compound: "Cl.c1ccc2nc(NCCCCCCCCNc3ccc4ccccc4n3)ccc2c1"
  readout-kind: "Inhibition"
  value-observed: "37%"
- compound: "Cl.Cn1ncc2c3c(CCN4CCC(NCc5cc6c(cn5)OCCO6)CC4)c(Cl)cnc3ccc21"
  readout-kind: "Inhibition"
  value-observed: "34%"
- compound: "CC(C)(C)c1ccc(NC(=O)c2cccc(CN3CCCN(Cc4ccc(F)cc4)CC3)c2)cc1.O=C(O)C(F)(F)F"
  readout-kind: "Inhibition"
  value-observed: "2%"
- compound: "CCOc1c(CNCCCCCCNCc2ccc3ccccc3c2OCC)ccc2ccccc12.CS(=O)(=O)O"
  readout-kind: "Inhibition"
  value-observed: "78%"
- compound: "Cc1cccc2nc(C3CCN(CC4CCN(C(=O)/C=C/c5ccc(Cl)c(Cl)c5)CC4)CC3)[nH]c12"
  readout-kind: "Inhibition"
  value-observed: "79%"

Entry `COc1cccc(OC)c1CN1CCC(N(C)CCCCCCCCCN2CCC(OC(=O)Nc3ccccc3-c3ccccc3)CC2)CC1` , Inhibition reported as 98%

Entry `C[C@@H]1CC[C@H](NC(=O)[C@H](CC2CCCC2)NC(=O)N2CCNCC2)C(=O)CN1S(=O)(=O)c1ccccn1.O=C(O)C(F)(F)F` , Inhibition reported as 19%

Entry CN1CCC(Oc2ccc(CN3CC[C@H](NC(=O)c4cccc(C#N)c4)C3)c3ccccc23)C1.O=C(O)C(F)(F)F (stereo partly drawn) , Inhibition reported as 30%

---

Tested on: Plasmodium falciparum
assay-name: GSK_TCMDC: Inhibition of Plasmodium falciparum Dd2 in whole red blood cells, using parasite LDH activity as an index of growth. Test compounds present at 2uM
Format: functional
Define the label as Fulfilled when Inhibition is strictly less than 60% and as Not fulfilled in all remaining cases.

Here are 7 molecules together with their reported answers.
- molecule: "COc1ccc(CCn2c(=N)c(C(=O)NCc3ccc(C)cc3)cc3c(=O)n4ccccc4nc32)cc1"
  class-label: "Fulfilled"
- molecule: "N=C(N)NN=CC(=O)Nc1ccc(Cl)cc1.O=S(=O)(O)O"
  class-label: "Fulfilled"
- molecule: "COc1ccc(-c2cnc3[nH]cc(-c4ccc(C(=O)O)c(C)c4)c3c2)cn1.O=C(O)C(F)(F)F"
  class-label: "Not fulfilled"
- molecule: "CCCC(C)Nc1nc(C)cc(N[C@@H](CC(C)C)C(=O)Nc2ccc(OC)cc2)n1.O=C(O)C(F)(F)F (stereo partly drawn)"
  class-label: "Not fulfilled"
- molecule: "CC(=O)Oc1c(C2CCN(CCCCNC(=O)c3ccc(-c4ccc(C#N)cc4)cc3)CC2)ccc2c1CCCC2"
  class-label: "Fulfilled"
- molecule: "COc1ccc2[nH]cc(C3CCN(CCCCCNC(=O)c4ccc(-c5ccccc5)cc4)CC3)c2c1"
  class-label: "Fulfilled"
- molecule: "CS(=O)(=O)Nc1ccc2c(C3CCN(CCC4CCN(C(=O)/C=C/c5ccc(Cl)c(Cl)c5)CC4)CC3)c[nH]c2c1"
  class-label: "Not fulfilled"

As a next step, examine the molecule that follows.
Consider the molecule `Cc1cccc2nc(-c3ccc(-c4cccc(CNCc5cccc(N)c5)c4)cc3)[nH]c12.O=C(O)C(F)(F)F` . Is its Inhibition strictly less than 60%?
Not fulfilled
